experiment_summary: Biodistribution of 18F-labeled SST2 ligands in AR42J tumor-bearing mice
Type: in vivo
setup_conditions: female, CD1 nu/nu, mouse, spleen, iv, total radioactivity, 1 h post injection, tail vein; read-out: Spleen % ID/g ± SD
Examples of compounds with documented tissue uptake at 1 h follow.
Please don't drop the unit; write it after the number.

| compound | val |
| --- | --- |
| C[C@@H](O)[C@H](NC(=O)C1CSSCC(NC(=O)C(Cc2ccccc2)NC(=O)CNC(=O)CNC(=O)[C@@H](CC(=O)O)NC(=O)C(CC(=O)O)NC(=O)[C@@H](CNC(=O)CN2CCN(CC(=O)O)CCN(CC(=O)O)CCN(CC(=O)O)CC2)NC(=O)C(CN)NC(=O)c2ccc([Si](F)(C(C)(C)C)C(C)(C)C)cc2)C(=O)N[C@@H](Cc2ccc(O)cc2)C(=O)NC(Cc2c[nH]c3ccccc23)C(=O)N[C@@H](CCCCN)C(=O)N[C@@H]([C@@H](C)O)C(=O)N1)C(=O)O (some centres unmarked) (natGa complex, metal not drawn) [[Ga]19] | 0.93 %ID/g |

Now take the following compound into account.
Request: Please indicate tissue uptake at 1 h recorded for C[C@@H](O)[C@H](NC(=O)C1CSSCC(NC(=O)C(Cc2ccccc2)NC(=O)CNC(=O)CNC(=O)CNC(=O)C(CC(=O)O)NC(=O)[C@@H](CC(=O)O)NC(=O)C(CCCCN)NC(=O)[C@@H](CNC(=O)C[N+](C)(C)Cc2ccc([Si](F)(C(C)(C)C)C(C)(C)C)cc2)NC(=O)CN2CCN(CC(=O)O)CCN(CC(=O)O)CCN(CC(=O)O)CC2)C(=O)N[C@@H](Cc2ccc(O)cc2)C(=O)NC(Cc2c[nH]c3ccccc23)C(=O)N[C@@H](CCCCN)C(=O)N[C@@H]([C@@H](C)O)C(=O)N1)C(=O)O (some centres unmarked) (natGa complex, metal not drawn) [[Ga]45]
Result: 0.56 %ID/g

---

experiment_summary: Biodistribution of 18F-labeled SST2 ligands in AR42J tumor-bearing mice
Assay type: in vivo
setup_conditions: female, CD1 nu/nu, mouse, AR42J tumor, iv, total radioactivity, AR42J tumor, 1 h post injection, tail vein; read-out: Tumor % ID/g ± SD
property: tissue uptake at 1 h (%ID/g)
// note: answer is a bare numeric in %ID/g

| molecule | tissue uptake at 1 h, %ID/g |
| --- | --- |
| C[C@@H](O)[C@H](NC(=O)C1CSSCC(NC(=O)C(Cc2ccccc2)NC(=O)CNC(=O)CNC(=O)[C@@H](CC(=O)O)NC(=O)C(CC(=O)O)NC(=O)[C@@H](CNC(=O)CN2CCN(CC(=O)O)CCN(CC(=O)O)CCN(CC(=O)O)CC2)NC(=O)C[N+](C)(C)Cc2ccc([Si](F)(C(C)(C)C)C(C)(C)C)cc2)C(=O)N[C@@H](Cc2ccc(O)cc2)C(=O)NC(Cc2c[nH]c3ccccc23)C(=O)N[C@@H](CCCCN)C(=O)N[C@@H]([C@@H](C)O)C(=O)N1)C(=O)O (some centres unmarked) (natGa complex, metal not drawn) [[Ga]24] | 23.9 |
| C[C@@H](O)[C@H](NC(=O)C1CSSCC(NC(=O)C(Cc2ccccc2)NC(=O)CNC(=O)CNC(=O)[C@@H](CC(=O)O)NC(=O)C(CC(=O)O)NC(=O)[C@@H](CNC(=O)CN2CCN(CC(=O)O)CCN(CC(=O)O)CCN(CC(=O)O)CC2)NC(=O)C(CN)NC(=O)c2ccc([Si](F)(C(C)(C)C)C(C)(C)C)cc2)C(=O)N[C@@H](Cc2ccc(O)cc2)C(=O)NC(Cc2c[nH]c3ccccc23)C(=O)N[C@@H](CCCCN)C(=O)N[C@@H]([C@@H](C)O)C(=O)N1)C(=O)O (some centres unmarked) (natGa complex, metal not drawn) [[Ga]19] | 36.3 |
| C[C@@H](O)[C@H](NC(=O)C1CSSCC(NC(=O)C(Cc2ccccc2)NC(=O)CNC(=O)CNC(=O)CNC(=O)C(CC(=O)O)NC(=O)[C@@H](CC(=O)O)NC(=O)C(CNC(=O)CN2CCN(CC(=O)O)CCN(CC(=O)O)CCN(CC(=O)O)CC2)NC(=O)C[N+](C)(C)Cc2ccc([Si](F)(C(C)(C)C)C(C)(C)C)cc2)C(=O)N[C@@H](Cc2ccc(O)cc2)C(=O)NC(Cc2c[nH]c3ccccc23)C(=O)N[C@@H](CCCCN)C(=O)N[C@@H]([C@@H](C)O)C(=O)N1)C(=O)O (some centres unmarked) (natGa complex, metal not drawn) [[Ga]50] | 31.8 |
| C[C@@H](O)[C@H](NC(=O)C1CSSCC(NC(=O)C(Cc2ccccc2)NC(=O)CNC(=O)CNC(=O)CNC(=O)C(CC(=O)O)NC(=O)[C@@H](CC(=O)O)NC(=O)C(CCCNC(N)=O)NC(=O)[C@@H](CNC(=O)C[N+](C)(C)Cc2ccc([Si](F)(C(C)(C)C)C(C)(C)C)cc2)NC(=O)CN2CCN(CC(=O)O)CCN(CC(=O)O)CCN(CC(=O)O)CC2)C(=O)N[C@@H](Cc2ccc(O)cc2)C(=O)NC(Cc2c[nH]c3ccccc23)C(=O)N[C@@H](CCCCN)C(=O)N[C@@H]([C@@H](C)O)C(=O)N1)C(=O)O (some centres unmarked) (natGa complex, metal not drawn) [[Ga]46] | 23.4 |

Now examine the next entry.
Request: Indicate the recorded tissue uptake at 1 h value for this molecule: C[C@@H](O)[C@H](NC(=O)C1CSSCC(NC(=O)C(Cc2ccccc2)NC(=O)CNC(=O)CNC(=O)CNC(=O)C(CC(=O)O)NC(=O)[C@@H](CC(=O)O)NC(=O)C(CCCCN)NC(=O)[C@@H](CNC(=O)C[N+](C)(C)Cc2ccc([Si](F)(C(C)(C)C)C(C)(C)C)cc2)NC(=O)CN2CCN(CC(=O)O)CCN(CC(=O)O)CCN(CC(=O)O)CC2)C(=O)N[C@@H](Cc2ccc(O)cc2)C(=O)NC(Cc2c[nH]c3ccccc23)C(=O)N[C@@H](CCCCN)C(=O)N[C@@H]([C@@H](C)O)C(=O)N1)C(=O)O (some centres unmarked) (natGa complex, metal not drawn) [[Ga]45]
Result: 31.6
